System: Serratia marcescens SM
assay-text: In vitro MIC, Agar Well Diffusion Method
Assay type: cell-based
test-settings: Agar Well Diffusion Method; Serratia marcescens SM; read-out: In Vitro MIC
Where a name gives a salt, the structure may show the parent alone.
Recorded MIC values for a group of compounds are listed next.

Recorded results for 3 compounds are shown here.
[[record]]
compound = "CCn1cc(C(=O)O)c(=O)c2cc(F)c(N3CCN(C=N[C@@H]4C(=O)N5C(C(=O)O)=C(C)CS[C@H]45)CC3)cc21 [Compound C, disodium salt]"
measured_target = "Serratia marcescens SM"
reported = "3.9 µg/mL"

[[record]]
compound = "CCn1cc(C(=O)O)c(=O)c2cc(F)c(N3CCN(C=N[C@@H]4C(=O)N5[C@@H]4SC(C)(C)[C@@H]5C(=O)O)CC3)nc21 [Compound H, disodium salt]"
measured_target = "Serratia marcescens SM"
reported = "31.3 µg/mL"

[[record]]
compound = "CCn1cc(C(=O)OC)c(=O)c2cc(F)c(N3CCN(C=N[C@@H]4C(=O)N5[C@@H]4SC(C)(C)[C@@H]5C(=O)O)CC3)cc21"
measured_target = "Serratia marcescens SM"
reported = "250 µg/mL"


Measured MIC (Serratia marcescens SM), entry CCn1cc(C(=O)O)c(=O)c2cc(F)c(N3CCN(C=N[C@@H]4C(=O)N5[C@@H]4SC(C)(C)[C@@H]5C(=O)O)CC3)cc21 [Compound B, monosodium salt] : 62.5 µg/mL

The value of MIC recorded for CCn1cc(C(=O)O)c(=O)c2cc(F)c(N3CCCN(C=N[C@@H]4C(=O)N5[C@@H]4SC(C)(C)[C@@H]5C(=O)O)CC3)cc21 [Compound G, disodium salt] when tested on Serratia marcescens SM reads 50 µg/mL

CC1(C)S[C@@H]2[C@H](N=CN3CCN(c4c(F)cc5c(=O)c(C(=O)O)cn(CCF)c5c4F)CC3)C(=O)N2[C@H]1C(=O)O [Compound D, monosodium salt] tested on Serratia marcescens SM gave MIC: 31.3 µg/mL

* * *

Quick reference: MIC of the listed items.
Test system: Proteus vulgaris 101N
assay-text: In vitro MIC, Agar Well Diffusion Method
Type: cell-based
test-settings: Agar Well Diffusion Method; Proteus vulgaris 101N; read-out: In Vitro MIC
Where a name gives a salt, the structure may show the parent alone.
Write down the numeric answer in µg/mL and omit the unit.

[[record]]
compound = "CCn1cc(C(=O)O)c(=O)c2cc(F)c(N3CCCN(C=N[C@@H]4C(=O)N5[C@@H]4SC(C)(C)[C@@H]5C(=O)O)CC3)cc21 [Compound G, disodium salt]"
recorded_endpoint = "MIC"
units_text = "µg/mL"
reported = 50


Looking up CC1(C)S[C@@H]2[C@H](N=CN3CCN(c4c(F)cc5c(=O)c(C(=O)O)cn(CCF)c5c4F)CC3)C(=O)N2[C@H]1C(=O)O [Compound D, monosodium salt] , I found its MIC recorded as 1.95

The compound identified as CCn1cc(C(=O)O)c(=O)c2cc(F)c(N3CCN(C=N[C@@H]4C(=O)N5C(C(=O)O)=C(C)CS[C@H]45)CC3)cc21 [Compound C, disodium salt] registered its MIC at 0.98

The values you see were collected from patent US5159077A.
